- system_tested: 5-lipoxygenase (Human Leukocyte/PMNL 5-LPO) (Homo sapiens, UniProt P09917)
- Construct: Human neutrophils and platelets were obtained from the blood of normal volunteers; endogenous in cells; host or cells: human blood leukocytes (neutrophils) of normal volunteers, with 0.1 to 0.5 platelets per leukocyte
- Sequence (P09917 whole entry): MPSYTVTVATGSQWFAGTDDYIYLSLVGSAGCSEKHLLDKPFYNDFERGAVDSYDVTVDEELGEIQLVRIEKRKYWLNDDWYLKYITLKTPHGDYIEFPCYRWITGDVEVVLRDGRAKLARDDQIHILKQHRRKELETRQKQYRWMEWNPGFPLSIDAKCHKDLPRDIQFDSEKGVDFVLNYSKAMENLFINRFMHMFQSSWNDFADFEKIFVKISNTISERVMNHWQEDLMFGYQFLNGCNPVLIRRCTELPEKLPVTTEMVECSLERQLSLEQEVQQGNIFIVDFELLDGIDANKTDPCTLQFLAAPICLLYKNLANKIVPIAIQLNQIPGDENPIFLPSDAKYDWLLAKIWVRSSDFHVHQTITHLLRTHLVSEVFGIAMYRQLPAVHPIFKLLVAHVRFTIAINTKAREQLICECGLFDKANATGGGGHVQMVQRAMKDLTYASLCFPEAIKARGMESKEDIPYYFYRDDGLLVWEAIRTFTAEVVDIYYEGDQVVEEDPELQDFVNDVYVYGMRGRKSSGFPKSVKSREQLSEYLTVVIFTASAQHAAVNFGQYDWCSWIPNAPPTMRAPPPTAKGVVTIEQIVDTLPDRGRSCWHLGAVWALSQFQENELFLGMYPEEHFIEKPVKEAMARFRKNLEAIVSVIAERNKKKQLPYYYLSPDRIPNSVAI
- protocol_text: Inhibition of 5-lipoxygenase (5-HETE formation) in human neutrophil/platelet system
- Assay type: cell-based
- measurement_conditions: FIG. 1 table; 95% confidence interval; read-out: IC50 Human PMNL 5-LPO
- Procedure: This test is a measure of the inhibition of the synthesis of lipoxygenase products generated by human neutrophils and platelets. […] Human neutrophils and platelets were obtained from the blood of normal volunteers. […] The cell fraction was mixed with an equal volume of 0.9% saline containing 10 mM dextrose and resuspended in Dulbecco's phosphate buffered saline (PBS) without Mg^++ and Ca^++ and was counted. […]
pIC50: −log10 of the molar value.
experimental_readout: pIC50

# compound, experimental_readout, observed
data = [
    ("O=C(CCCCCCCCCc1ccccc1)NO", "pIC50", 4.94),
]

a. O=C(CCCCCCCc1ccccc1)NO
b. CN(O)C(=O)CCCCCCCCc1ccccc1
c. CN(O)C(=O)CCCCCCCc1ccccc1 [BMY30208, N-methyl-8-phenyloctanohydroxamic acid]
d. CC(C)N(O)C(=O)CCCc1ccccc1
e. O=C(CCCCCCCCc1ccccc1)NO [Compound 1, 9-Phenylnonanohydroxamic Acid]
Ascending by pIC50, please: list the compounds accordingly. Arrange the labels as the request states and list them.
a, e, d, b, c

---

- system_tested: Human Platelet 12-LPO (Homo sapiens)
- Construct: Human neutrophils and platelets were obtained from the blood of normal volunteers; endogenous in cells
- Sequence (P18054 1-663): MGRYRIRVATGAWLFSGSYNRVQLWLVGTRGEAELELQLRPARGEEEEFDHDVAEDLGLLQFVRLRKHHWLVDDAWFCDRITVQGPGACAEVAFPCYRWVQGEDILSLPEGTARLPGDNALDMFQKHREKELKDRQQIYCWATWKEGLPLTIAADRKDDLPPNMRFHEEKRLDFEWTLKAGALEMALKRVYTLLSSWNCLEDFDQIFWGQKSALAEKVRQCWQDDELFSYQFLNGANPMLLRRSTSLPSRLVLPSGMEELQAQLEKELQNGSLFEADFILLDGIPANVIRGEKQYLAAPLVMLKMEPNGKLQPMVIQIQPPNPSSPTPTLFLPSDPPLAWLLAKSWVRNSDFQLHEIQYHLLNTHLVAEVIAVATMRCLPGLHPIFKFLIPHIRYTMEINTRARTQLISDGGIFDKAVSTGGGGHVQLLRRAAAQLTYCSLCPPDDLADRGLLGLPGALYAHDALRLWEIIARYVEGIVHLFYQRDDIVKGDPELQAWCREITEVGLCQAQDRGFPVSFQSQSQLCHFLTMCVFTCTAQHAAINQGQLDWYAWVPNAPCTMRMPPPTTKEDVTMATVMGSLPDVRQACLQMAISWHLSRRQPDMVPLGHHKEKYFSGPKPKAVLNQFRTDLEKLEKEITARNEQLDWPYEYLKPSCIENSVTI
- protocol_text: Inhibition of 12-LPO, human platelet
- measurement_conditions: 95% confidence interval
pIC50: −log10 of the molar value.
experimental_readout: pIC50

# compound, pIC50
measured = [
    ("CC(C)N(O)C(=O)CCCCCCCCc1ccccc1 [BMY30224]", 4.86),
]

P. CC(C)N(O)C(=O)CCCCCCCCCc1ccccc1 [BMY30218]
Q. CN(O)C(=O)CCCCCCCCCc1ccccc1 [BMY30217]
Please indicate which item has the smaller measured pIC50: P versus Q Give the label of your selection.
P
